protocolDescription: Viscosity responsiveness: fluorescence emission spectra of probes in glycerol and methanol
Format: physicochemical
testConditions: probe 1×10^−5 M
parameterMeasured: Fluorescence ratio in glycerol to methanol

CN(CCOC(=O)NCc1ccc(COc2nccc(N)n2)cc1)c1ccc(/C=C(\C#N)c2nc3ccccc3s2)cc1 ... 851

(P) CN(CCOC(=O)NCc1ccc(COc2nccc(N)n2)cc1)c1cc2sc(/C=C(\C#N)C(=O)OC(C)(C)C)cc2s1
(Q) CN(CCO)c1cc2sc(/C=C(\C#N)C(=O)NCc3ccc(COc4nc(N)nc5[nH]cnc45)cc3)cc2s1 [Reference Probe 108, reference compound]
Sort P and Q by Fluorescence ratio in glycerol to methanol descending and give the first. Identify your selection by its label. P
(P: 1134, Q: 329)

----------
protocolDescription: Fluorescence of free probe prior to binding to a protein tag
Type: physicochemical
parameterMeasured: Quantum yield of free probe

The following compounds have reported results that may help.
CN1C(=O)/C(=C/c2ccc(N(C)CCOC(=O)NCc3ccc(COc4nc(N)nc5[nH]cnc45)cc3)cc2)N=C1c1ccccc1 ... <0.001
CN(CCOC(=O)NCc1ccc(COc2nccc(N)n2)cc1)c1ccc2nc(/C=C(\C#N)C(=O)OC(C)(C)C)sc2c1 ... <0.001
CN(CCOC(=O)NCc1ccc(COc2nc(N)nc3[nH]cnc23)cc1)c1ccc(/C=C(\C#N)C(=O)OC(C)(C)C)cc1 ... <0.001

Reported Quantum yield of free probe, compound COCCNC(=O)/C(C#N)=C/c1ccc(-c2ccc(N(C)CCOC(=O)NCc3ccc(COc4nc(N)nc5[nH]cnc45)cc3)s2)s1 : ____ <0.001

Reported Quantum yield of free probe, compound CN(CCO)c1cc2sc(/C=C(\C#N)C(=O)NCc3ccc(COc4nc(N)nc5[nH]cnc45)cc3)cc2s1 [Reference Probe 108, reference compound] : ____ <0.001

Reported Quantum yield of free probe, compound CN(CCOC(=O)NCc1ccc(COc2nccc(N)n2)cc1)c1ccc2c(c1)sc1cc(/C=C(/C#N)c3nc4ccccc4o3)sc12 : ____ <0.001

Reported Quantum yield of free probe, compound CN(CCOC(=O)NCc1ccc(COc2nc(N)nc3[nH]cnc23)cc1)c1ccc(C#C/C=C(\C#N)c2nc3ccccc3o2)cc1 : ____ <0.001

----------
assayTarget: SNAP protein tags (Homo sapiens, UniProt P16455, A127T/A154D/C150Q/C62A/E30R/G131K/G132T/G153L/K125A/K32I/L33F/M134L/N157G/Q115S/Q116H/R128A/R135S/S151G/S152D/S159E)
Sequence (P16455 1-182 E30R/K32I/L33F/C62A/Q115S/Q116H/K125A/A127T/R128A/G131K/G132T/M134L/R135S/C150Q/S151G/S152D/G153L/A154D/N157G/S159E): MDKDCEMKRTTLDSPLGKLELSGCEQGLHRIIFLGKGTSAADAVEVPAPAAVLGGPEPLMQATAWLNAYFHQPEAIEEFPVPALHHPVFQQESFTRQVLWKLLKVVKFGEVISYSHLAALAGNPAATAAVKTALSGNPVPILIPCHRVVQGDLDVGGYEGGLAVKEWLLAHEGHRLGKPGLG
protocolDescription: Fluorescence activation of probe after incubation with corresponding protein tag (SNAP)
Format: biochemical
testConditions: probe 5 μM, protein tag 10 μM, 37° C., 1 hr
parameterMeasured: Quantum yield of probe bound to protein tag

(P) CC(C)(C)OC(=O)/C(C#N)=C/c1cc2ccc(N(CCO)CCOC(=O)NCc3ccc(COc4nc(N)nc5[nH]cnc45)cc3)cc2s1 [probe 37]
(Q) CN(CCO)c1cc2sc(/C=C(\C#N)C(=O)NCc3ccc(COc4nc(N)nc5[nH]cnc45)cc3)cc2s1 [Reference Probe 108, reference compound]
(R) CN(CCOC(=O)NCc1ccc(COc2nc(N)nc3[nH]cnc23)cc1)c1ccc(C#C/C=C(\C#N)c2nc3ccccc3s2)cc1 [probe 59]
Sort the entries above by Quantum yield of probe bound to protein tag, smallest first. Answer with the labels in sequence, matching the requested order. Q, R, P

----------
assayTarget: SNAP protein tags (Homo sapiens, UniProt P16455, A127T/A154D/C150Q/C62A/E30R/G131K/G132T/G153L/K125A/K32I/L33F/M134L/N157G/Q115S/Q116H/R128A/R135S/S151G/S152D/S159E)
protocolDescription: Fluorescence activation of probe after incubation with corresponding protein tag (SNAP)
Format: biochemical
testConditions: probe 5 μM, protein tag 10 μM, 37° C., 1 hr
parameterMeasured: Fluorescence activation multiple

CN(CCOC(=O)NCc1ccc(COc2nc(N)nc3[nH]cnc23)cc1)c1cc2c(s1)-c1sc(C=C(C#N)C#N)cc1[Si]2(C)C ... 248
CN(CCOC(=O)NCc1ccc(COc2nc(N)nc3[nH]cnc23)cc1)c1ccc2nc(/C=C(\C#N)c3nc4ccccc4o3)sc2c1 ... 498
N#C/C(=C\c1ccc2c(c1)SCCN2CCOC(=O)NCc1ccc(COc2nc(N)nc3[nH]cnc23)cc1)c1nc2ccccc2s1 ... 413

(A) CN(CCOC(=O)NCc1ccc(COc2nc(N)nc3[nH]cnc23)cc1)c1ccc(/C=C(\C#N)C(=O)O)cc1
(B) CN(CCOC(=O)NCc1ccc(COc2nc(N)nc3[nH]cnc23)cc1)c1cc2sc3cc(/C=C(\C#N)C(=O)OC(C)(C)C)sc3c2s1
Sort A and B by Fluorescence activation multiple descending and give the first. Identify your selection by its label. B
(B: 751, A: 463)

(A) CC1=CC(C)(C)N(CCO)c2ccc(/C=C(\C#N)C(=O)NCc3ccc(COc4nc(N)nc5[nH]cnc45)cc3)cc21 [Reference Probe 106, reference compound]
(B) CN(CCOC(=O)NCc1ccc(COc2nc(N)nc3[nH]cnc23)cc1)c1ccc2cc(/C=C(\C#N)c3nc4ccccc4o3)sc2c1
Sort A and B by Fluorescence activation multiple descending and give the first. Identify your selection by its label. B

(1) CN(CCOC(=O)NCc1ccc(COc2nc(N)nc3[nH]cnc23)cc1)c1ccc2nc(/C=C(\C#N)C(=O)OC(C)(C)C)sc2c1
(2) CN(CCOC(=O)NCc1ccc(COc2cc(Cl)nc(N)n2)cc1)c1cc2sc(/C=C(\C#N)c3nc4ccccc4o3)cc2s1
(3) CN(CCOC(=O)NCc1ccc(COc2nc(N)nc3[nH]cnc23)cc1)c1cc2cc3sc(/C=C(\C#N)C(=O)OC(C)(C)C)cc3cc2s1
(4) CN(C)c1ccc(-c2ccc(/C=C(\C#N)C(=O)NCc3ccc(COc4nc(N)nc5[nH]cnc45)cc3)s2)cc1 [Reference Probe 116, reference compound]
# sort list by recorded Fluorescence activation multiple, greatest to least Answer with the labels in sequence, matching the requested order. 2, 1, 3, 4

(A) CN(CCOC(=O)NCc1ccc(COc2cc(Cl)nc(N)n2)cc1)c1cc2sc(/C=C(\C#N)C(=O)OC(C)(C)C)cc2s1
(B) CN(CCOC(=O)NCc1ccc(COc2nc(N)nc3[nH]cnc23)cc1)c1ccc(C2=C(C#N)C(=C(C#N)C#N)OC2(C)C)cc1
Please indicate which entry, A or B , has the lower recorded Fluorescence activation multiple value. Identify your selection by its label. B
(B: 265, A: 590)

----------
protocolDescription: Viscosity responsiveness: fluorescence emission spectra of probes in glycerol and methanol
Type: physicochemical
testConditions: excited at maximum excitation wavelength of each probe
parameterMeasured: Emission wavelength (nm)

CN(CCOC(=O)NCc1ccc(COc2nccc(N)n2)cc1)c1cc2sc(/C=C(\C#N)c3nc4ccccc4o3)cc2s1 ... 590
CN(CCOC(=O)NCc1ccc(COc2nccc(N)n2)cc1)c1ccc2nc(/C=C(\C#N)c3nc4ccccc4s3)oc2c1 ... 625
CN(CCOC(=O)NCc1ccc(COc2nc(N)nc3[nH]cnc23)cc1)c1ccc(-c2ccc(/C=C(\C#N)c3nc4ccccc4s3)s2)s1 ... 681
CC1=CC(C)(C)N(CCO)c2ccc(/C=C(\C#N)C(=O)NCc3ccc(COc4nc(N)nc5[nH]cnc45)cc3)cc21 [Reference Probe 106, reference compound] ... 555
CN(C)c1ccc(/C=C(\C#N)C(=O)NCc2ccc(COc3nc(N)nc4[nH]cnc34)cc2)cc1 [Reference Probe 100, reference compound] ... 480
CN(CCOC(=O)NCc1ccc(COc2nc(N)nc3[nH]cnc23)cc1)c1ccc2cc(/C=C(\C#N)c3nc4ccccc4o3)sc2c1 ... 607
CN(CCOC(=O)NCc1ccc(COc2cc(Cl)nc(N)n2)cc1)c1cc2sc(/C=C(\C#N)c3nc4ccccc4o3)cc2s1 ... 590
CN(CCOC(=O)NCc1ccc(COc2nc(N)nc3[nH]cnc23)cc1)c1ccc2nc(/C=C(\C#N)C(=O)OC(C)(C)C)sc2c1 ... 625
CN(CCOC(=O)NCc1ccc(COc2nccc(N)n2)cc1)c1cc2sc(/C=C(\C#N)C(=O)OC(C)(C)C)cc2s1 ... 555
CN(CCOC(=O)NCc1ccc(COc2nc(N)nc3[nH]cnc23)cc1)c1cc2c(s1)-c1sc(/C=C(/C#N)C(=O)O)cc1C2(C)C ... 650
CC1=CC(C)(C)N(CCOC(=O)NCc2ccc(COc3nc(N)nc4[nH]cnc34)cc2)c2ccc(/C=C(\C#N)c3nc4ccccc4o3)cc21 ... 595
CN(CCOC(=O)NCc1ccc(COc2nc(N)nc3[nH]cnc23)cc1)c1cc2sc(/C=C(\C#N)C(=O)OC(C)(C)C)cc2s1 ... 555
CN(CCOC(=O)NCc1ccc(COc2cc(Cl)nc(N)n2)cc1)c1ccc2nc(/C=C(\C#N)C(=O)OC(C)(C)C)oc2c1 ... 603
CC1=CC(C)(C)N(CCOC(=O)NCc2ccc(COc3nc(N)nc4[nH]cnc34)cc2)c2ccc(/C=C(\C#N)c3nc4ccccc4s3)cc21 ... 612
CN1C(=O)/C(=C\c2cc3ccc(N(C)CCOC(=O)NCc4ccc(COc5nc(N)nc6[nH]cnc56)cc4)cc3s2)N=C1c1ccccc1 ... 600
CN(CCOC(=O)NCc1ccc(COc2nc(N)nc3[nH]cnc23)cc1)c1ccc2cc(/C=C(\C#N)C(=O)OC(C)(C)C)sc2c1 [probe 40] ... 570
CN(CCOC(=O)NCc1ccc(COc2nc(N)nc3[nH]cnc23)cc1)c1ccc2nc(/C=C(\C#N)c3nc4ccccc4s3)sc2c1 ... 651
CN(CCOC(=O)NCc1ccc(COc2nccc(N)n2)cc1)c1ccc2cc(/C=C(\C#N)C(=O)OC(C)(C)C)sc2c1 ... 570
COCCNC(=O)/C(C#N)=C/c1ccc(-c2ccc(N(C)CCOC(=O)NCc3ccc(COc4cc(Cl)nc(N)n4)cc3)cc2)s1 ... 620
CN(CCOC(=O)NCc1ccc(COc2cc(Cl)nc(N)n2)cc1)c1ccc(/C=C(\C#N)c2nc3ccccc3o2)cc1 ... 555
CN(CCOC(=O)NCc1ccc(COc2nccc(N)n2)cc1)c1cc2sc(/C=C(\C#N)c3nc4ccccc4s3)cc2s1 ... 610
CC(C)(C)OC(=O)/C(C#N)=C/c1ccc(N(CCO)CCOC(=O)NCc2ccc(COc3nc(N)nc4[nH]cnc34)cc2)cc1 ... 482
CN(CCOC(=O)NCc1ccc(COc2nc(N)nc3[nH]cnc23)cc1)c1ccc2nc(/C=C(\C#N)C(=O)O)oc2c1 ... 601
CN(CCC(=O)NCc1ccc(COc2nc(N)nc3[nH]cnc23)cc1)c1ccc(/C=C(\C#N)C(=O)OC(C)(C)C)cc1 ... 483
CN(CCOC(=O)NCc1ccc(COc2nc(N)nc3[nH]cnc23)cc1)c1cc2c(s1)-c1sc(/C=C(/C#N)C(=O)OC(C)(C)C)cc1[Si]2(C)C ... 680
CN(CCOC(=O)NCc1ccc(COc2nc(N)nc3[nH]cnc23)cc1)c1ccc(/C=C(\C#N)C(=O)O)cc1 ... 481
